- assay text: DSSTox (CPDBAS) Carcinogenic Potency Database Summary SingleCellCall Results
- condition context: animal chronic carcinogenicity bioassays, CPDB summary call
- Source text: The Carcinogenic Potency Database (CPDB) is a unique and widely used international resource of the results of over 6500 chronic, long-term animal cancer tests on over 1500 chemical substances. The CPDB provides easy access to the bioassay literature, with qualitative and quantitative analyses of both positive and negative experiments that have been published over the past 50 years in the general literature and by the National Cancer Institute/National Toxicology Program. […]
Calls of active or inactive are those of the source.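 Rule for the calls: active = a tumor-causing dose value with its tumor site reported for any sex and species group of a rodent or other animal cancer study; inconclusive = only studies judged inadequate by the national testing program; inactive = tested in at least one study, none positive.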
readout type: outcome

>>> measured_value("C=CC(OCC)OCC")
"inactive"
>>> measured_value("IC(I)I")
"inactive"
>>> measured_value("CCCCC/C=C\\C/C=C\\CCCCCCCC(=O)OC")
"inactive"

###

- assay text: DSSTox (CPDBAS) Carcinogenic Potency Database Summary SingleCellCall Results
- condition context: animal chronic carcinogenicity bioassays, CPDB summary call
Calls of active or inactive are those of the source.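 Rule for the calls: active = a tumor-causing dose value with its tumor site reported for any sex and species group of a rodent or other animal cancer study; inconclusive = only studies judged inadequate by the national testing program; inactive = tested in at least one study, none positive.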
Mark one answer only. Choices: 1.0 (active), 0.0 (inactive)

INPUT: Could you kindly confirm the outcome this assay logged for C=CCN(CCO)N=O ?
OUTPUT: 1.0

INPUT: Could you kindly confirm the outcome this assay logged for NCCCC(N)(C(=O)O)C(F)F (stereo not given) ?
OUTPUT: 0.0

INPUT: Please indicate how the test categorized CC(=O)Nc1ccc(-c2ccc(F)cc2)cc1 .
OUTPUT: 1.0

INPUT: Field: outcome | Entry: CC1(C)S[C@@H]2[C@H](NC(=O)[C@H](N)c3ccccc3)C(=O)N2[C@H]1C(=O)O
OUTPUT: 0.0

INPUT: Could you please tell me the result logged for CCN=[N+](C)[O-] in this assay?
OUTPUT: 1.0

INPUT: Test call, this molecule: Nc1c(Cl)c(Cl)nc(C(=O)O)c1Cl
OUTPUT: 0.0

INPUT: Tell me the assay call for O=[N+]([O-])c1ccc(Cl)c([N+](=O)[O-])c1 please.
OUTPUT: 0.0

INPUT: Hi team, can someone confirm the assay call for CN(C)P(=O)(N(C)C)N(C)C ?
OUTPUT: 1.0

INPUT: What classification did NC(=O)c1cnccn1 end up with in this test?
OUTPUT: 0.0

INPUT: Fill in: this test's call for Nc1ccc(Oc2ccc(Cl)cc2)cc1 is ___
OUTPUT: 1.0

INPUT: Give the logged outcome of this assay for the following molecule: Cc1cccc(OCC(O)CNC(C)(C)C)c1C (stereo not given)
OUTPUT: 0.0

INPUT: Could you check what this test reported for CCCCN(N)CCCC ?
OUTPUT: 1.0

INPUT: Any idea what this test logged for CC(=O)OC/C=C(\C)CCC=C(C)C ?
OUTPUT: 0.0

INPUT: Record request — test call for CC(C)(C)NC[C@H](O)COc1cccc2c1CCCC2=O
OUTPUT: 0.0

INPUT: Give the logged outcome of this assay for the following molecule: CC/C=C(/CC)[N+](=O)[O-]
OUTPUT: 1.0

INPUT: # lookup: test call for C=CCN(CC(O)CO)N=O (stereo not given)
OUTPUT: 1.0

INPUT: How was CC1(C)OC(=O)NC1=O classified in this test?
OUTPUT: 0.0

INPUT: Called result for [O]=[Cr](=[O])([OH])[O][Cr](=[O])(=[O])[OH]
OUTPUT: 1.0

INPUT: Fill in: this test's call for O=C(O)[C@@H]1[C@H](C(=O)O)[C@@]2(Cl)C(Cl)=C(Cl)[C@]1(Cl)C2(Cl)Cl is ___
OUTPUT: 1.0

INPUT: Fill in: this test's call for CNc1ncnc2nc[nH]c12 is ___
OUTPUT: 0.0

INPUT: So what was the verdict on c1ccc2ccccc2c1 in this test?
OUTPUT: 1.0

INPUT: Short answer needed: outcome of this test for CC(I)C1OCC(CO)O1 (stereo not given) ?
OUTPUT: 1.0

INPUT: Assay result, entry Cc1cccc(C)c1NC(=O)CN1CCCC1=O — outcome?
OUTPUT: 0.0

INPUT: Name the outcome recorded for CC1=C(C(=O)OCCN(Cc2ccccc2)c2ccccc2)C(c2cccc([N+](=O)[O-])c2)C(P2(=O)OCC(C)(C)CO2)=C(C)N1 (stereo not given) in the assay.
OUTPUT: 0.0

INPUT: # outcome recorded in this test, key = OO
OUTPUT: 1.0

INPUT: Record request — test call for CC(=O)N(C(C)=O)c1cccc2c1Cc1ccccc1-2
OUTPUT: 1.0

INPUT: Which result was noted for this molecule in the test: Clc1cccc(-c2ccc(Cl)c(Cl)c2Cl)c1Cl
OUTPUT: 1.0

INPUT: Any idea what this test logged for CC(Cl)CCl (stereo not given) ?
OUTPUT: 1.0

INPUT: Entry O=[N+]([O-])c1ccc(-c2nc(N3CCOCC3)c3ccccc3n2)s1 : call = ?
OUTPUT: 1.0

INPUT: Dear all, I need the recorded test outcome for N[C@@H](Cc1cnc[nH]1)C(=O)O , thank you.
OUTPUT: 0.0

INPUT: How was NNC(N)=O classified in this test?
OUTPUT: 1.0

INPUT: // param item: O=c1[nH]c(=O)n(C2CCCO2)cc1F (stereo not given) ; yields the recorded call
OUTPUT: 0.0

INPUT: Recorded test outcome, item C=CC(N)=O
OUTPUT: 1.0

INPUT: How was Cc1cc(Cl)ccc1OCC(=O)O classified in this test?
OUTPUT: 0.0

INPUT: What did this assay record as the result for Cc1cc(Cc2ccc(N)c(C)c2)ccc1N ?
OUTPUT: 1.0

INPUT: Status in this test for COc1cc(N)ccc1N=Nc1ccccc1 ?
OUTPUT: 0.0

INPUT: Status in this test for C=CCN(CC(C)=O)N=O ?
OUTPUT: 1.0

INPUT: Short answer needed: outcome of this test for CN[C@H]1CC[C@@H](c2ccc(Cl)c(Cl)c2)c2ccccc21 ?
OUTPUT: 0.0

INPUT: Could you please tell me the result logged for Cl in this assay?
OUTPUT: 0.0

INPUT: Identify the outcome logged in this assay for the molecule shown: CC(C)NCC(O)c1ccc(NS(C)(=O)=O)cc1 (stereo not given)
OUTPUT: 0.0

INPUT: Assay outcome for CN(C)c1ccc(Cc2ccc(N(C)C)cc2)cc1 : what was it?
OUTPUT: 1.0

INPUT: Give the logged outcome of this assay for the following molecule: NC(=O)/C(=C\c1ccc([N+](=O)[O-])o1)c1ccco1
OUTPUT: 1.0

INPUT: Assay result, entry Cc1cc(OC(=O)N(C)C)n(C(C)C)n1 — outcome?
OUTPUT: 0.0

INPUT: Test call, this molecule: O=[N+]([O-])c1ccc(Cl)cc1
OUTPUT: 1.0

INPUT: Record request — test call for C=CC
OUTPUT: 0.0

INPUT: Record request — test call for C/C=C/c1ccc(OC)cc1
OUTPUT: 0.0

INPUT: What was the test verdict on CCCCCCN(N=O)C(N)=O ?
OUTPUT: 1.0

INPUT: For this molecule, state the assay outcome: c1ccc2c(c1)cc1ccc3cccc4ccc2c1c34
OUTPUT: 1.0

INPUT: Would you mind telling me which call this test gave Clc1ccc(Cl)cc1 ?
OUTPUT: 1.0

INPUT: Dear colleague, could you share the recorded outcome for CCCc1ccc2c(c1)OCO2 when you have a moment?
OUTPUT: 1.0

INPUT: Hi team, can someone confirm the assay call for CC(COc1ccc(C(C)(C)C)cc1)OS(=O)OCCCl (stereo not given) ?
OUTPUT: 1.0

INPUT: I would be grateful if you could indicate the recorded call for CCNc1nc(Cl)nc(NCC)n1 .
OUTPUT: 0.0

INPUT: Write down the call the test reported for this molecule. Item: ClCC(Br)CBr (stereo not given)
OUTPUT: 1.0

INPUT: Recorded call for C=C(Cl)CSC(=S)N(CC)CC ?
OUTPUT: 1.0

INPUT: Test call for this molecule, please: CCOP(=S)(OCC)Oc1nc(Cl)c(Cl)cc1Cl
OUTPUT: 0.0

###

- assay text: DSSTox (CPDBAS) Carcinogenic Potency Database Summary SingleCellCall Results
- condition context: animal chronic carcinogenicity bioassays, CPDB summary call
The source made the active and inactive calls.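 How the source made its calls: active means a tumor-causing dose value with its tumor site reported for any sex and species group of a rodent or other animal cancer study; inconclusive means only studies judged inadequate by the national testing program; inactive means tested in at least one study, none positive.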
Give one outcome, nothing more. List: true (1) = active, false (0) = inactive

INPUT: Identify the outcome logged in this assay for the compound shown: CN1C(=O)CN=C(c2ccccc2)c2cc(Cl)ccc21
OUTPUT: false (0)

INPUT: For OCCN(CCO)C(=S)S , which call appears in the assay record?
OUTPUT: true (1)

INPUT: Outcome logged for CC(C)(C)c1cc(CO)cc(C(C)(C)C)c1O in this assay:
OUTPUT: false (0)

INPUT: What did this assay record as the result for C1CC2OC2CC1C1CO1 (centres undefined) ?
OUTPUT: false (0)

###

- assay text: DSSTox (CPDBAS) Carcinogenic Potency Database Summary SingleCellCall Results
- condition context: animal chronic carcinogenicity bioassays, CPDB summary call
Calls of active or inactive are those of the source.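 The calls were made as follows: active = a tumor-causing dose value with its tumor site reported for any sex and species group of a rodent or other animal cancer study; inconclusive = only studies judged inadequate by the national testing program; inactive = tested in at least one study, none positive.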
Classes to choose from: true (1) (active), false (0) (inactive)

INPUT: Recorded test call requested for NCC(=O)O
OUTPUT: true (1)

INPUT: Answer briefly: the call reported for CCCCCCCCCCCCC(=O)COC1=C(O)C(=O)O[C@@H]1[C@@H](O)CO in this assay.
OUTPUT: false (0)

INPUT: Kindly provide the recorded test outcome for the following compound: CCc1nc(N)nc(N)c1-c1ccc(Cl)cc1
OUTPUT: false (0)

INPUT: Dear all, I need the recorded test outcome for CN(C)CNc1nnc(/C=C/c2ccc([N+](=O)[O-])o2)o1 , thank you.
OUTPUT: true (1)

INPUT: Call for entry CC(=O)O[C@@H]1[C@@H](O)C2OC3C=C(C)C(=O)C(O)[C@@]3(CO)[C@]1(C)[C@]21CO1 (stereo partly specified) :
OUTPUT: false (0)

INPUT: # fetch the recorded call for O=C(O)c1[nH]n(-c2ccc(S(=O)(=O)O)cc2)c(=O)c1N=Nc1ccc(S(=O)(=O)O)cc1 here
OUTPUT: false (0)

INPUT: For Cc1cc(C)c(N)cc1C , which call appears in the assay record?
OUTPUT: true (1)

INPUT: Recorded call for CN(C)c1ccc(C(=C2C=CC(=[N+](C)C)C=C2)c2ccc(N(C)C)cc2)cc1 ?
OUTPUT: true (1)

INPUT: Give the logged outcome of this assay for the following compound: [C-]1=CC=CC1.[C-]1=CC=CC1.[Cl-].[Cl-].[Ti+4]
OUTPUT: false (0)

INPUT: Could you please tell me the result logged for O=c1cc(CO)occ1O in this assay?
OUTPUT: true (1)

INPUT: What is the recorded call for this compound in the test? NC(=O)c1cccnc1
OUTPUT: false (0)

INPUT: Call for entry CC(=O)Nc1nc(-c2ccc([N+](=O)[O-])o2)cs1 :
OUTPUT: true (1)

INPUT: Field: outcome | Entry: Oc1ccccc1
OUTPUT: false (0)

INPUT: Hello, I am checking results. What call was entered for CCOP(=S)(OCC)Oc1ccc2c(C)c(Cl)c(=O)oc2c1 ?
OUTPUT: false (0)

INPUT: For CCOC(=O)CBr , what call appears in the results of this test?
OUTPUT: false (0)

INPUT: Hey, what did the test say about CC(Oc1ccc(Cl)cc1Cl)C(=O)O (stereo unspecified) ?
OUTPUT: false (0)

INPUT: What outcome does the record of this test show for COC(=O)NN ?
OUTPUT: false (0)

INPUT: Test call, this compound: FC(F)(F)CCl
OUTPUT: true (1)

INPUT: Test call, this compound: Nc1nc(N)nc(N)n1
OUTPUT: true (1)

INPUT: Could you check what this test reported for Nc1ccc(N=Nc2ccc(-c3ccc(N=Nc4c(S(=O)(=O)O)cc5cc(S(=O)(=O)O)c(N=Nc6ccccc6)c(O)c5c4N)cc3)cc2)c(N)c1 ?
OUTPUT: true (1)

INPUT: Field: outcome | Entry: CC1SC(C)N(N=O)C(C)S1 (stereo unspecified)
OUTPUT: true (1)

Data credit: PubChem BioAssay AID1189
